Parameter AC50: see the listing below.
# study system: PKR R532W (Homo sapiens, UniProt P30613, R532W)
# Sequence (P30613 whole entry R532W): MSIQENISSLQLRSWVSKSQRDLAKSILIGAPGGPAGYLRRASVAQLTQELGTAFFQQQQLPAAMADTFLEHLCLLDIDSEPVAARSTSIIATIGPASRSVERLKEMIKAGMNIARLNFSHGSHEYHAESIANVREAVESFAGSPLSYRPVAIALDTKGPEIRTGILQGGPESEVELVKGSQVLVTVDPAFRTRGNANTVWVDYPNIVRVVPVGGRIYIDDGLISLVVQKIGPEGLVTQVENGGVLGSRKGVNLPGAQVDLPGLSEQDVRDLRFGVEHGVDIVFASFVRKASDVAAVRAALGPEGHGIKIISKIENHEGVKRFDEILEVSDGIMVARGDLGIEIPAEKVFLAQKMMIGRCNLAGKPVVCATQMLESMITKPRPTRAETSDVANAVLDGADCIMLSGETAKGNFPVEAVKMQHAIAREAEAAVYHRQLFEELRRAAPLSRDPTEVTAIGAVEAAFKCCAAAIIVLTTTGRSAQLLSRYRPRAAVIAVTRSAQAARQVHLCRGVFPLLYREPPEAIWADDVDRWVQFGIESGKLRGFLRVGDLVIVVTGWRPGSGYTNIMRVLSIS
# method description: PKR Mutant Assay, AC50 against PKR R532W
# Type: biochemical
# assay setup: mutant PKR R532W enzyme

1. CCOC(=O)C1(CC(C)C)CCN(C(=O)c2ccc(NS(=O)(=O)c3cccc4cccnc34)cc2)CC1    101 to 1000 nM
2. CC1(CC2(O)CCN(C(=O)c3ccc(NS(=O)(=O)c4cccc5cccnc45)cc3)CC2)CC1    < 100 nM
3. O=C(c1ccc(NS(=O)(=O)c2cccc3scnc23)cc1)N1CCC(O)(/C=C/CC(F)(F)F)CC1    < 100 nM

Input line: Supply reported AC50 belonging to this molecule: CC(C)CC1(C=O)CCN(C(=O)c2ccc(NS(=O)(=O)c3cccc4cccnc34)cc2)CC1
Output line: < 100 nM

Input line: Supply reported AC50 belonging to this molecule: O=C(c1ccc(NS(=O)(=O)c2cccc3cccnc23)cc1)N1CCC(O)(Cc2ccccc2C(F)(F)F)CC1
Output line: < 100 nM

Input line: Supply reported AC50 belonging to this molecule: O=C(c1ccc(NS(=O)(=O)c2cccc3c(O)ncnc23)cc1)N1CCC(O)(/C=C/CC(F)(F)F)CC1
Output line: 101 to 1000 nM

Input line: Supply reported AC50 belonging to this molecule: CC(C)(C)CC1(O)CCN(C(=O)c2ccc(NS(=O)(=O)c3cccc4nccnc34)cc2)CC1
Output line: < 100 nM

Input line: Supply reported AC50 belonging to this molecule: O=C(c1ccc(NS(=O)(=O)c2cccc3cccnc23)cc1)N1CCC(O)(CCC(F)F)CC1
Output line: < 100 nM

----------
# study system: PKR R510Q (Homo sapiens, UniProt P30613, R510Q)
# Sequence (P30613 whole entry R510Q): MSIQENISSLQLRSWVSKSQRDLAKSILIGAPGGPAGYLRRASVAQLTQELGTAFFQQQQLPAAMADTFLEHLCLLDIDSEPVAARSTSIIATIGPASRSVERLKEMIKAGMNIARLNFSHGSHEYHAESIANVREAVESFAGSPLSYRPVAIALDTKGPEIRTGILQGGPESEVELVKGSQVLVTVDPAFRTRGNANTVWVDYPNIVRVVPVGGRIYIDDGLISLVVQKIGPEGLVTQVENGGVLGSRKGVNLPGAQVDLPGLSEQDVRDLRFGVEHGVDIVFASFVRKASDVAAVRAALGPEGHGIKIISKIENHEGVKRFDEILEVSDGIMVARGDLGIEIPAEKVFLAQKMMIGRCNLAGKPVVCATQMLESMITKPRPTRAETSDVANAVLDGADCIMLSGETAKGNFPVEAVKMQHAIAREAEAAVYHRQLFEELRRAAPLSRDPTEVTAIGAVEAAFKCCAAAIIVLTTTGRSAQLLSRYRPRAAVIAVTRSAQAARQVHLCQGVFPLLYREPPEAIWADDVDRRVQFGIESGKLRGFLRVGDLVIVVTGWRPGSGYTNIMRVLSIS
# method description: PKR Mutant Assay, AC50 against PKR R510Q
# Format: biochemical
# assay setup: mutant PKR R510Q enzyme
Parameter AC50: see the listing below.

1. O=C(c1ccc(NS(=O)(=O)c2cccc3scnc23)cc1)N1CCC(O)(CCCC(F)(F)F)CC1    101 to 1000 nM
2. CNc1nc2c(S(=O)(=O)Nc3ccc(C(=O)N4CCC(O)(CC(C)C)CC4)cc3)cccc2s1    < 100 nM
3. Nc1nc2c(S(=O)(=O)Nc3ccc(C(=O)N4CCC(O)(CCCC(F)(F)F)CC4)cc3)cccc2s1    < 100 nM
4. O=C(c1ccc(NS(=O)(=O)c2cccc3cccnc23)nc1)N1CCC(O)(c2ccccc2)CC1    > 10000 nM
5. O=C(c1ccc(NS(=O)(=O)c2cccc3cccnc23)cc1)N1CCC(O)(c2cnsc2)CC1 [Compound 353]    101 to 1000 nM
6. CC(C)CC1(O)CCN(C(=O)c2ccc(NS(=O)(=O)c3cccc4ocnc34)cc2)CC1    101 to 1000 nM

Below: the item to evaluate.
Input line: Supply reported AC50 belonging to this compound: CNc1nc2c(S(=O)(=O)Nc3ccc(C(=O)N4CCC(O)(CC(C)C)CC4)cc3)cc(Cl)cc2s1
Output line: < 100 nM

----------
Parameter AC50: see the listing below.
# study system: PKR R510Q (Homo sapiens, UniProt P30613, R510Q)
# method description: PKR Mutant Assay, AC50 against PKR R510Q
# Format: biochemical
# assay setup: mutant PKR R510Q enzyme

Known results for compounds:
1. CC(C)(F)CC1(O)CCN(C(=O)c2ccc(NS(=O)(=O)c3cccc4scnc34)cc2)CC1    101 to 1000 nM
2. O=C(c1ccc(NS(=O)(=O)c2cccc3cccnc23)c2ccccc12)N1CCC(O)(c2ccccc2Cl)CC1    101 to 1000 nM
3. CC(F)(F)CCC1(O)CCN(C(=O)c2ccc(NS(=O)(=O)c3cc(F)cc4sc(N)nc34)cc2)CC1    < 100 nM
4. O=C(c1ccc(NS(=O)(=O)c2cccc3cccnc23)cc1F)N1CCC(O)(c2ccccc2Cl)CC1    101 to 1000 nM
5. Cc1cc(F)ccc1C1(O)CCN(C(=O)c2ccc(NS(=O)(=O)c3cccc4cccnc34)cc2)CC1    < 100 nM

Input line: Provide AC50, recorded with PKR R510Q (Homo sapiens, UniProt P30613, R510Q), of O=C(c1ccc(NS(=O)(=O)c2cccc3cccnc23)cc1)N1CCC(O)(Cc2cccc(C(F)(F)F)c2)CC1
Output line: 101 to 1000 nM

Input line: Provide AC50, recorded with PKR R510Q (Homo sapiens, UniProt P30613, R510Q), of O=C(c1ccc(NS(=O)(=O)c2cccc3cccnc23)cc1)N1CCC(O)(Cc2cccnn2)CC1
Output line: 1010 to 10000 nM

----------
Parameter AC50: see the listing below.
# study system: PKR R532W (Homo sapiens, UniProt P30613, R532W)
# method description: PKR Mutant Assay, AC50 against PKR R532W
# Assay type: biochemical
# assay setup: mutant PKR R532W enzyme
# Procedure: • PKR or PKR mutant enzyme solution was diluted in assay buffer. • 2 μL of test compound was added into wells first, and then 180 μL reaction mix was added. • Reactions mixture with test compound was assembled except for ADP, and plates were stored for 60 minutes at room temperature. • 20 uL ADP was added to start reaction at room temperature and reaction progress was measured as changes in absorbance at 340 nm wavelength at room temperature. […]

1. CC(C)CC1(O)CCN(C(=O)c2ccc(NS(=O)(=O)c3cccc4ccc(N)nc34)cc2)CC1 [Compound 402]    < 100 nM

Input line: Supply reported AC50 belonging to this compound: CC(C)CC1(O)CCN(C(=O)c2ccc(NS(=O)(=O)c3cccc4scnc34)cc2)CC1 [Compound 173]
Output line: < 100 nM

Input line: Supply reported AC50 belonging to this compound: O=C(c1c(F)cc(NS(=O)(=O)c2cccc3cccnc23)cc1F)N1CCC(O)(c2ccccc2Cl)CC1 [Compound 232]
Output line: 101 to 1000 nM

Input line: Supply reported AC50 belonging to this compound: Cc1ccc(C2(O)CCN(C(=O)c3ccc(NS(=O)(=O)c4cccc5cccnc45)cc3)CC2)c(Cl)c1 [Compound 190]
Output line: < 100 nM

----------
# study system: PKR R510Q (Homo sapiens, UniProt P30613, R510Q)
# method description: PKR Mutant Assay, AC50 against PKR R510Q
# Assay type: biochemical
# assay setup: mutant PKR R510Q enzyme
Parameter AC50: see the listing below.

Known results for compounds:
1. O=C(c1ccc(NS(=O)(=O)c2cccc3nccnc23)cc1)N1CCC(O)(CCC(F)=C(F)F)CC1    101 to 1000 nM
2. CS(=O)(=O)c1ccccc1C1(O)CCN(C(=O)c2ccc(NS(=O)(=O)c3cccc4cccnc34)cc2)CC1    1010 to 10000 nM
3. CCCCC1(O)CCN(C(=O)c2ccc(NS(=O)(=O)c3cccc4cccnc34)cc2)CC1    < 100 nM

Below: the item to evaluate.
Input line: Supply reported AC50 belonging to this compound: O=C(c1ccc(NS(=O)(=O)c2cccc3cccnc23)cc1Cl)N1CCC(O)(c2ccccc2Cl)CC1
Output line: 101 to 1000 nM

----------
# study system: PKR R532W (Homo sapiens, UniProt P30613, R532W)
# method description: PKR Mutant Assay, AC50 against PKR R532W
# Format: biochemical
# assay setup: mutant PKR R532W enzyme
measured parameter: AC50

Known results for compounds:
1. O=C(c1ccc(NS(=O)(=O)c2cccc3cccnc23)cc1)N1CCC(CO)(c2ccccc2)CC1    0.101 to 1 µM
2. O=C(c1ccc(NS(=O)(=O)c2cccc3scnc23)cc1)N1CCC(O)(CCC=C(F)F)CC1    < 0.1 µM
3. O=C(c1ccc(NS(=O)(=O)c2cccc3cccnc23)cc1)N1CCC(C(=O)O)(c2ccccc2)CC1    > 10 µM
4. O=C(c1ccc(NS(=O)(=O)c2cccc3cccnc23)cc1)N1CCC(O)(CCCO)CC1    0.101 to 1 µM
5. O=C(c1ccc(NS(=O)(=O)c2cccc3cccnc23)cc1)N1CCC(O)(Cc2cccc(F)c2F)CC1    < 0.1 µM
6. O=C(c1ccc(NS(=O)(=O)c2cccc3cccnc23)cc1)N1CCC(O)(CC2CC2)CC1    < 0.1 µM

Below: the item to evaluate.
Input line: Supply reported AC50 belonging to this compound: O=C(c1ccc(NS(=O)(=O)c2cccc3cnccc23)cc1)N1CCC(O)(c2ccccc2)CC1
Output line: > 10 µM

----------
# study system: PKR WT (Homo sapiens, UniProt P30613)
# Sequence (P30613 whole entry): as the sequence (P30613 whole entry R510Q) above, with Q510R counted along it
# method description: PKR WT enzymatic AC50 assay
# Format: biochemical
# assay setup: wild type PKR
measured parameter: AC50

Known results for compounds:
1) O=C(c1ccc(NS(=O)(=O)c2cccc3cccnc23)cc1)N1CCC(O)(CCC(F)F)CC1 [Compound 204]    < 100 nM
2) O=C(c1ccc(NS(=O)(=O)c2cccc3cccnc23)cc1)N1CCC(O)(c2cnsc2)CC1 [Compound 353]    < 100 nM
3) COc1nc(C(=O)N2CCC(O)(c3ccccc3)CC2)ccc1NS(=O)(=O)c1cccc2cccnc12 [Compound 304]    1010 to 10000 nM
4) CC(C)(O)CC1(O)CCN(C(=O)c2ccc(NS(=O)(=O)c3cccc4cccnc34)cc2)CC1 [Compound 241]    101 to 1000 nM
5) O=C(c1ccc(NS(=O)(=O)c2cccc3cccnc23)cc1)N1CCC(O)(Cc2ccccc2F)CC1 [Compound 110]    < 100 nM

Input line: Supply reported AC50 belonging to this compound: Cc1cc(C(=O)N2CCC(O)(c3cccc(F)c3F)CC2)ccc1NS(=O)(=O)c1ccc(F)c2cccnc12 [Compound 220]
Output line: < 100 nM

Input line: Supply reported AC50 belonging to this compound: O=C(c1ccc(NS(=O)(=O)c2cccc3c(O)ncnc23)cc1)N1CCC(O)(CCCC(F)(F)F)CC1 [Compound 427]
Output line: < 100 nM
